Target: UniProtKB Q14160
Sequence (Q14160 whole entry): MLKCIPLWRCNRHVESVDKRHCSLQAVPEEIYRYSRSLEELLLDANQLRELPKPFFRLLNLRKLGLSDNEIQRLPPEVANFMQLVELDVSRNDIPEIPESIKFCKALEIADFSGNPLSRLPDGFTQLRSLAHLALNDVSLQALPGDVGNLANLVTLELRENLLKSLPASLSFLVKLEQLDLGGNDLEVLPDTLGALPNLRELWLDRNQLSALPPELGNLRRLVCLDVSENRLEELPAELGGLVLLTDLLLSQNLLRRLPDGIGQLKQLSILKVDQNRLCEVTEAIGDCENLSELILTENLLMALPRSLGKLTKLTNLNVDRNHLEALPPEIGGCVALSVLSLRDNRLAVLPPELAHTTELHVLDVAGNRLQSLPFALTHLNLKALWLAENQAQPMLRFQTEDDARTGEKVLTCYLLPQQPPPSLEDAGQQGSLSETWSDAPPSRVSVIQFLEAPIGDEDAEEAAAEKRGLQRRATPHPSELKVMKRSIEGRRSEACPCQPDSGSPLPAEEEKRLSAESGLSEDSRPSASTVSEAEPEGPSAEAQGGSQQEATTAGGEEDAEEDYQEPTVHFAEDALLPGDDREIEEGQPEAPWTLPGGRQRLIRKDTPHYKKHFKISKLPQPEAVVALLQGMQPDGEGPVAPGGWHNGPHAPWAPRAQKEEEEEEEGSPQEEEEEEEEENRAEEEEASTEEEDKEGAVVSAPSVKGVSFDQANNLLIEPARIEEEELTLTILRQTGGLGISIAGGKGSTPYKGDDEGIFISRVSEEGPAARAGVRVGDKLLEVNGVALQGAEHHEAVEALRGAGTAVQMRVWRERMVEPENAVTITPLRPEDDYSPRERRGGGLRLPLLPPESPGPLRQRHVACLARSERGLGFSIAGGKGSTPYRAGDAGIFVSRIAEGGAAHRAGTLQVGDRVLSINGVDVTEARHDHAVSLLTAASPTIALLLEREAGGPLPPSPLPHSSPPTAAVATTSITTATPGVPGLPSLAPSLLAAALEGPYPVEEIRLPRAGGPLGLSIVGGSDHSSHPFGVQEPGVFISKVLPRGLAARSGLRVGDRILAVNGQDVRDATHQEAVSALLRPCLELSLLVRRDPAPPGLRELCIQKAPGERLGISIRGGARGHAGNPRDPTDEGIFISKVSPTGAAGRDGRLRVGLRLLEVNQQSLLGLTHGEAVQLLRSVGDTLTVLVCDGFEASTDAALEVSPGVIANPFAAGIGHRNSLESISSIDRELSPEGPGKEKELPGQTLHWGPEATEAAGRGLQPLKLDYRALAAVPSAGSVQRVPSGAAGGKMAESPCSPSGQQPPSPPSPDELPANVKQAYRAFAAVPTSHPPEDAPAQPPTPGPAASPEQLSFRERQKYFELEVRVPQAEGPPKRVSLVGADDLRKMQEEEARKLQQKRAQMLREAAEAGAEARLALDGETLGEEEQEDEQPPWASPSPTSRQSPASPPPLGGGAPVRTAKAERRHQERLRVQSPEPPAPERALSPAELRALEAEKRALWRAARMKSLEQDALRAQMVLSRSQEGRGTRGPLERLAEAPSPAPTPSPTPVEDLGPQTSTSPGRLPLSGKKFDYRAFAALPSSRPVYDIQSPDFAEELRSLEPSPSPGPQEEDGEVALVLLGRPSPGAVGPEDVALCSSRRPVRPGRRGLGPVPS
Test: Single-point nHU-WB, 12 PBM peptide baits, Jurkat extract
Format: binding
*1 amine or outer side, *2 acyl side, *3 side chain or, on linkers, in order; H or OH if unused. Where a SMILES comes first, the peptide text is derived from it. The star is where a group is joined. X1 = O=C(CCCC[C@@H]1SC[C@@H]2NC(=O)N[C@@H]21)NCCCOCCOCCOCCCN*; Suc = O=C(CCC(=O)[*:2])[*:1]
measurementName: Kd (µM)
Field: numeric (µM). Do not append units.

Problem: Indicate the recorded Kd value for this compound: CC(C)C[C@H](NC(=O)[C@@H]1CCCN1C(=O)[C@H](Cc1c[nH]cn1)NC(=O)[C@H](Cc1ccccc1)NC(=O)CCC(=O)NCCCOCCOCCOCCCNC(=O)CCCC[C@@H]1SC[C@@H]2NC(=O)N[C@@H]21)C(=O)NCC(=O)N[C@@H](C)C(=O)N[C@@H](CC(=O)O)C(=O)N[C@@H](CO)C(=O)N[C@@H](CCC(N)=O)C(=O)N[C@H](C(=O)O)C(C)C [SLC2A1] ({X1-Suc}-FHPLGADSQV-OH; C-terminus assumed)
Result: 69.2
